pKi values recorded for Coagulation factor X (Homo sapiens, UniProt P00742)
Note: pKi values are expressed as the negative base-10 logarithm of concentration in M.

{"columns": ["molecule", "pKi"],
 "data": [
  ["N=C(N)NCCC[C@H](NC(=O)[C@@H]1CCN2CC[C@@](N)(Cc3ccccc3)CN12)C(=O)c1nc2ccccc2s1", 6.57]
]}

Kindly consider the entry below.
Test item N=C(N)NCCC[C@H](NC(=O)[C@@H]1CCC2CC[C@@](N)(Cc3ccccc3)CN21)C(=O)c1nc2ccccc2s1 (stereo in doubt; form 2) ; Coagulation factor X (Homo sapiens, UniProt P00742); reported pKi was 7.71

###

IC50 values recorded for Coagulation factor X (Homo sapiens)
Report only the number, with the unit µM understood.

{"columns": ["molecule", "IC50 [µM]"],
 "data": [
  ["N=C(N)NCCC[C@@H](CCl)NC(=O)[C@@H]1CCN2CC[C@@](N)(Cc3ccccc3)CN12", 0.385]
]}

Kindly consider the entry below.
Notebook: NC(N)=NCCC[C@@H](CCl)NC(=O)[C@@H]1CCCN1C(=O)[C@H](N)Cc1ccccc1 , IC50 read as 0.165

###

pKi values recorded for UniProtKB P00750
Note: pKi values are expressed as the negative base-10 logarithm of concentration in M.

{"columns": ["compound", "measure_name", "value"],
 "data": [
  ["N=C(N)NCCC[C@H](NC(=O)[C@@H]1CCC2CC[C@@](N)(Cc3ccccc3)CN21)C(=O)c1nc2ccccc2s1 (stereo in doubt; form 2)", "pKi", 7.03]
]}

Notebook: N=C(N)NCCC[C@H](NC(=O)[C@@H]1CCN2CC[C@@](N)(Cc3ccccc3)CN12)C(=O)c1nc2ccccc2s1 , pKi read as 6.31

###

# target_under_test: Tissue-type plasminogen activator (Homo sapiens)
# protocol_details: Compound was evaluated for the inhibition of Tissue type plasminogen activator (tissue plasminogen activator)
measure_name: IC50
Report field: quantity (unit follows the number).

Notebook: NC(N)=NCCC[C@@H](CCl)NC(=O)[C@@H]1CCCN1C(=O)[C@H](N)Cc1ccccc1 , IC50 read as 106 nM

###

k on values recorded for Prothrombin (Homo sapiens, UniProt P00734)
Report only the number, with the unit M⁻¹ s⁻¹ understood.

Completed entries (count: 3):
{"columns": ["molecule", "target_under_test", "value"],
 "data": [
  ["N=C(N)NCCC[C@@H](CCl)NC(=O)[C@@H]1CCN2CC[C@@](N)(Cc3ccccc3)CN12", "Prothrombin (Homo sapiens, UniProt P00734)", "2.4e+06"],
  ["COc1ccc(CCNC(=O)C(=O)[C@H](CCCN=C(N)N)NC(=O)[C@@H]2CCN3CC[C@@](N)(Cc4ccccc4)CN23)cc1", "Prothrombin (Homo sapiens, UniProt P00734)", 250000],
  ["N=C(N)NCCC[C@H](NC(=O)[C@@H]1CCN2CC[C@@](N)(Cc3ccccc3)CN12)C(=O)C(=O)NCCc1ccc(Cl)cc1", "Prothrombin (Homo sapiens, UniProt P00734)", 380000]
]}

Test item N=C(N)NCCC[C@H](NC(=O)[C@@H]1CCN2CC[C@@](N)(Cc3ccccc3)CN12)C(=O)C(=O)NCCc1ccccc1 ; Prothrombin (Homo sapiens, UniProt P00734); reported k on was 640000

Test item N=C(N)NCCC[C@H](NC(=O)[C@@H]1CCN2CC[C@@](N)(Cc3ccccc3)CN12)C(=O)C(=O)NCc1ccccc1 ; Prothrombin (Homo sapiens, UniProt P00734); reported k on was 880000

###

# target_under_test: Plasminogen (Rattus norvegicus)
# Sequence (Q01177 97-581 limits assumed): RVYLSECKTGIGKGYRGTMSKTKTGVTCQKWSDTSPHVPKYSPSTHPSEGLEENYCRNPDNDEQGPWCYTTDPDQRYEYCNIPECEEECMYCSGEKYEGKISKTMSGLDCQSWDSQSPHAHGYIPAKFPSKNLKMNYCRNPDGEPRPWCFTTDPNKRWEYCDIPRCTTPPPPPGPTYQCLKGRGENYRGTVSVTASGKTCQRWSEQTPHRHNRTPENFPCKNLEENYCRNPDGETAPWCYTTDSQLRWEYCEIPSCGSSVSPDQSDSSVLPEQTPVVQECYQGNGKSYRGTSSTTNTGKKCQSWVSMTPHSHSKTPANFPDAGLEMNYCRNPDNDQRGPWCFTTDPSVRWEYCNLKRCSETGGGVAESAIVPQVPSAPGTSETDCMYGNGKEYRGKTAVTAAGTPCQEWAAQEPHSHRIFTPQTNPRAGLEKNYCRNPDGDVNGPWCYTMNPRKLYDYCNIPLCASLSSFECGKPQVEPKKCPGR
# Sequence (Q01177 582-812 limits assumed): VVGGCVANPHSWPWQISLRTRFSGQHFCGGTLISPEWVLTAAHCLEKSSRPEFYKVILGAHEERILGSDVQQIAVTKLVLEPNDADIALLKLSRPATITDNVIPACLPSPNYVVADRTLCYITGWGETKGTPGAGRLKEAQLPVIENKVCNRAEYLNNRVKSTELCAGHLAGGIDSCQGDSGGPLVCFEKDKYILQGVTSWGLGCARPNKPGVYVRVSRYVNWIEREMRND
# protocol_details: Inhibitory concentration against plasmin
The reader will find reported pIC50 values listed item by item below.
Note: pIC50 values are expressed as the negative base-10 logarithm of concentration in M.

{"columns": ["molecule", "pIC50"],
 "data": [
  ["N=C(N)NCCC[C@@H](CCl)NC(=O)[C@@H]1CCN2CC[C@@](N)(Cc3ccccc3)CN12", 6.01]
]}

Notebook: NC(N)=NCCC[C@@H](CCl)NC(=O)[C@@H]1CCCN1C(=O)[C@H](N)Cc1ccccc1 , pIC50 read as 6.16

###

Ki values recorded for Plasminogen (Rattus norvegicus)
Report only the number, with the unit nM understood.

{"columns": ["compound", "target_under_test", "Ki [nM]"],
 "data": [
  ["N=C(N)NCCC[C@H](NC(=O)[C@@H]1CCN2CC[C@@](N)(Cc3ccccc3)CN12)C(=O)c1nc2ccccc2s1", "Plasminogen (Rattus norvegicus)", 415]
]}

Kindly consider the entry below.
Notebook: N=C(N)NCCC[C@H](NC(=O)[C@@H]1CCC2CC[C@@](N)(Cc3ccccc3)CN21)C(=O)c1nc2ccccc2s1 (stereo in doubt; form 2) , Ki read as 251

###

IC50 values recorded for Coagulation factor VII (Homo sapiens)
Report field: quantity (unit follows the number).

{"columns": ["molecule", "target_under_test", "IC50"],
 "data": [
  ["N=C(N)NCCC[C@@H](CCl)NC(=O)[C@@H]1CCN2CC[C@@](N)(Cc3ccccc3)CN12", "Coagulation factor VII (Homo sapiens)", "140 nM"]
]}

Kindly consider the entry below.
Test item NC(N)=NCCC[C@@H](CCl)NC(=O)[C@@H]1CCCN1C(=O)[C@H](N)Cc1ccccc1 ; Coagulation factor VII (Homo sapiens); reported IC50 was 200 nM

###

# target_under_test: Tissue-type plasminogen activator (Homo sapiens, UniProt P00750)
# Sequence (P00750 whole entry): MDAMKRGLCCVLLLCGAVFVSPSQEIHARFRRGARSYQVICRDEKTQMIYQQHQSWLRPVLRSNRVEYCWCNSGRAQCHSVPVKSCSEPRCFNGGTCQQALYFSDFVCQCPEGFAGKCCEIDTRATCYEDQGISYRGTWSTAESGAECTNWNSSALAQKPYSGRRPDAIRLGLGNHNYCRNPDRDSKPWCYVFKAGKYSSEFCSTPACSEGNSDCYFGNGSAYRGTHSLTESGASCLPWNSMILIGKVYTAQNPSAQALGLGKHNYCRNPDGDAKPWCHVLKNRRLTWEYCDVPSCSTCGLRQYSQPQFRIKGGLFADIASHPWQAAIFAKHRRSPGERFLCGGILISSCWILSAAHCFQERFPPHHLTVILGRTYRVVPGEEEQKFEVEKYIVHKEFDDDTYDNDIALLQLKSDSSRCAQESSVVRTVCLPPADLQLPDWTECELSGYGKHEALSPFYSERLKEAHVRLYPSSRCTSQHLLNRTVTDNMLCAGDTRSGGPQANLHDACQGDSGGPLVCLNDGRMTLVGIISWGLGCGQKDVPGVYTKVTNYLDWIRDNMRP
# protocol_details: Inhibitory concentration against Tissue type plasminogen activator
measure_name: pIC50
Note: pIC50 values are expressed as the negative base-10 logarithm of concentration in M.

Test item N=C(N)NCCC[C@@H](CCl)NC(=O)[C@@H]1CCN2CC[C@@](N)(Cc3ccccc3)CN12 ; Tissue-type plasminogen activator (Homo sapiens, UniProt P00750); reported pIC50 was 6.20

###

The reader will find reported Ki values listed item by item below.
# target_under_test: UniProtKB P00749
Report only the number, with the unit nM understood.

{"columns": ["compound", "units_text", "Ki"],
 "data": [
  ["N=C(N)NCCC[C@H](NC(=O)[C@@H]1CCN2CC[C@@](N)(Cc3ccccc3)CN12)C(=O)c1nc2ccccc2s1", "nM", 600]
]}

Kindly consider the entry below.
Test item N=C(N)NCCC[C@H](NC(=O)[C@@H]1CCC2CC[C@@](N)(Cc3ccccc3)CN21)C(=O)c1nc2ccccc2s1 (stereo in doubt; form 2) ; UniProtKB P00749; reported Ki was 335

###

Ki values recorded for UniProt P00734
Report only the number, with the unit nM understood.

Completed entries (count: 3):
{"columns": ["compound", "target_under_test", "Ki / nM"],
 "data": [
  ["N=C(N)NCCC[C@H](NC(=O)[C@@H]1CCC2CC[C@@](N)(Cc3ccccc3)CN21)C(=O)c1nc2ccccc2s1 (stereo in doubt; form 2)", "UniProt P00734", 0.85],
  ["N=C(N)NCCC[C@H](NC(=O)[C@@H]1CCN2CC[C@@](N)(Cc3ccccc3)CN12)C(=O)C(=O)NCCc1ccccc1", "UniProt P00734", 0.071],
  ["N=C(N)NCCC[C@H](NC(=O)[C@@H]1CCC2CC[C@@](N)(Cc3ccccc3)CN21)C(=O)c1nc2ccccc2s1 (stereo in doubt; form 1)", "UniProt P00734", 10]
]}

Test item N=C(N)NCCC[C@H](NC(=O)[C@@H]1CCN2CC[C@@](N)(Cc3ccccc3)CN12)C(=O)c1nccs1 ; UniProt P00734; reported Ki was 2.4

Test item COc1ccc(CCNC(=O)C(=O)[C@H](CCCNC(=N)N)NC(=O)[C@@H]2CCN3CC[C@@](N)(Cc4ccccc4)CN23)cc1 ; UniProt P00734; reported Ki was 0.45
